Origin of the recorded values: ChEMBL document CHEMBL3988442

Molecular target: Proteasome subunit beta (Trypanosoma cruzi) (UniProt O96673)
Sequence (whole entry): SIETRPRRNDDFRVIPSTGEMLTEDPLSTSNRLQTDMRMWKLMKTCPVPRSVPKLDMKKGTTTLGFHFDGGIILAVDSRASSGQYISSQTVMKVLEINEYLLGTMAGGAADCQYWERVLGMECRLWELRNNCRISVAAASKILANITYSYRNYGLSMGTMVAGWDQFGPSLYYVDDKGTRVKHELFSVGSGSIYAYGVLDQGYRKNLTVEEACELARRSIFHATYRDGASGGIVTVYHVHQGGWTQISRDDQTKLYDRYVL
Experiment: Trypanosoma cruzi proteasome chymotrypsin-like activity (TcProtChymo) assay. Also: in the data most compounds retested in dose-response had high values.
Format: functional
Design: scale not given: direction of the effect not stated beside the values
Details: 9.37 µM
# reported Percent Effect; entries follow
Lab book: enter the figure in %, no units written.

Query: If you can, please state the reported Percent Effect value of CCS(=O)(=O)N1CCc2c(cccc2NC(=O)NCCOC)C1 .
Response: 7.77

Query: If you can, please state the reported Percent Effect value of Fc1cccnc1OC[C@@]12CCO[C@@H]1CCN(CC1CCOCC1)C2 .
Response: 14.3

Query: If you can, please state the reported Percent Effect value of Cn1nc2c(cc1=O)CN(Cc1nc(-c3cccs3)no1)CC2 .
Response: 13.7

Query: If you can, please state the reported Percent Effect value of CCc1nc(C)c(C(=O)NCCNc2cnccn2)s1 .
Response: 15.8

Query: If you can, please state the reported Percent Effect value of O=C(c1ccco1)N1CCOCC2(CCN(C3CCOCC3)C2)C1 (configuration not stated) .
Response: 7.95

Query: If you can, please state the reported Percent Effect value of CN(Cc1cncnc1)Cc1cn2c(n1)CN(C1CCOC1)CC2 (configuration not stated) .
Response: 8.38

Query: If you can, please state the reported Percent Effect value of COCCNC(=O)c1cc2c(s1)CCN2C(=O)c1ccccc1 .
Response: 9.74

Query: If you can, please state the reported Percent Effect value of Cc1noc(C)c1C(=O)NCc1ccc(N2CCOC(C)C2)nc1 (configuration not stated) .
Response: 12.5

Query: If you can, please state the reported Percent Effect value of O=C1CCSCC(C(=O)N2CCOCC2)N1 (configuration not stated) .
Response: 5.5

Query: If you can, please state the reported Percent Effect value of Cc1cc(CNc2cc(Cl)ccc2OCCS(C)(=O)=O)no1 .
Response: -4.01

Query: If you can, please state the reported Percent Effect value of Cc1cc(=O)[nH]c(SCC(=O)N(C)CC2Cc3ccccc3CN2C)n1 (configuration not stated) .
Response: 5.75

Query: If you can, please state the reported Percent Effect value of CCNC(=O)c1ccnc(NCC2COc3cc(OC)ccc3C2)c1 (configuration not stated) .
Response: 23.6

###

species on record: Homo sapiens; experiment: To identify inhibition of the IFN signalling (Jak-Stat) pathway via expression of an eGFP reporter gene under the control of an IFN-stimulated response element (ISRE) containing MxA promoter.; format: functional; parameters: scale not given: direction of the effect not stated beside the values; conditions: 30 µM
MEASURED_PARAMETER: Percent Effect (%)
Lab book: enter the figure in %, no units written.

Below: 4 compounds and their reported Percent Effect.
c1cnc(N2CCC3(CC2)CN(CC2CC2)c2ccccc23)nc1    15
Cc1nc2c(c(C)c1CC(=O)NCc1cccc(C#N)c1)c(=O)[nH]n2C    31.2
COc1ncnc2c1CCN(c1cc(C(F)(F)F)ncn1)CC2    20.9
CCCn1nc2c(cc1=O)CN(CC(=O)Nc1ccncc1)CC2    3.95

Query: If you can, please state the reported Percent Effect value of CCOc1ccc(Cl)c(C(=O)N2CCN(C(=O)c3ccoc3C)CC2)n1 .
Response: 12.9

Query: If you can, please state the reported Percent Effect value of Cn1ccc(C(=O)NC2CCC23CCN(Cc2cccnc2)CC3)c1 (stereo unspecified) .
Response: 2.32
